Source listed as ChEMBL document CHEMBL3600363.

- tgt: Phosphatidylinositol 4-kinase alpha (Homo sapiens)
- Sequence (P42356 whole entry): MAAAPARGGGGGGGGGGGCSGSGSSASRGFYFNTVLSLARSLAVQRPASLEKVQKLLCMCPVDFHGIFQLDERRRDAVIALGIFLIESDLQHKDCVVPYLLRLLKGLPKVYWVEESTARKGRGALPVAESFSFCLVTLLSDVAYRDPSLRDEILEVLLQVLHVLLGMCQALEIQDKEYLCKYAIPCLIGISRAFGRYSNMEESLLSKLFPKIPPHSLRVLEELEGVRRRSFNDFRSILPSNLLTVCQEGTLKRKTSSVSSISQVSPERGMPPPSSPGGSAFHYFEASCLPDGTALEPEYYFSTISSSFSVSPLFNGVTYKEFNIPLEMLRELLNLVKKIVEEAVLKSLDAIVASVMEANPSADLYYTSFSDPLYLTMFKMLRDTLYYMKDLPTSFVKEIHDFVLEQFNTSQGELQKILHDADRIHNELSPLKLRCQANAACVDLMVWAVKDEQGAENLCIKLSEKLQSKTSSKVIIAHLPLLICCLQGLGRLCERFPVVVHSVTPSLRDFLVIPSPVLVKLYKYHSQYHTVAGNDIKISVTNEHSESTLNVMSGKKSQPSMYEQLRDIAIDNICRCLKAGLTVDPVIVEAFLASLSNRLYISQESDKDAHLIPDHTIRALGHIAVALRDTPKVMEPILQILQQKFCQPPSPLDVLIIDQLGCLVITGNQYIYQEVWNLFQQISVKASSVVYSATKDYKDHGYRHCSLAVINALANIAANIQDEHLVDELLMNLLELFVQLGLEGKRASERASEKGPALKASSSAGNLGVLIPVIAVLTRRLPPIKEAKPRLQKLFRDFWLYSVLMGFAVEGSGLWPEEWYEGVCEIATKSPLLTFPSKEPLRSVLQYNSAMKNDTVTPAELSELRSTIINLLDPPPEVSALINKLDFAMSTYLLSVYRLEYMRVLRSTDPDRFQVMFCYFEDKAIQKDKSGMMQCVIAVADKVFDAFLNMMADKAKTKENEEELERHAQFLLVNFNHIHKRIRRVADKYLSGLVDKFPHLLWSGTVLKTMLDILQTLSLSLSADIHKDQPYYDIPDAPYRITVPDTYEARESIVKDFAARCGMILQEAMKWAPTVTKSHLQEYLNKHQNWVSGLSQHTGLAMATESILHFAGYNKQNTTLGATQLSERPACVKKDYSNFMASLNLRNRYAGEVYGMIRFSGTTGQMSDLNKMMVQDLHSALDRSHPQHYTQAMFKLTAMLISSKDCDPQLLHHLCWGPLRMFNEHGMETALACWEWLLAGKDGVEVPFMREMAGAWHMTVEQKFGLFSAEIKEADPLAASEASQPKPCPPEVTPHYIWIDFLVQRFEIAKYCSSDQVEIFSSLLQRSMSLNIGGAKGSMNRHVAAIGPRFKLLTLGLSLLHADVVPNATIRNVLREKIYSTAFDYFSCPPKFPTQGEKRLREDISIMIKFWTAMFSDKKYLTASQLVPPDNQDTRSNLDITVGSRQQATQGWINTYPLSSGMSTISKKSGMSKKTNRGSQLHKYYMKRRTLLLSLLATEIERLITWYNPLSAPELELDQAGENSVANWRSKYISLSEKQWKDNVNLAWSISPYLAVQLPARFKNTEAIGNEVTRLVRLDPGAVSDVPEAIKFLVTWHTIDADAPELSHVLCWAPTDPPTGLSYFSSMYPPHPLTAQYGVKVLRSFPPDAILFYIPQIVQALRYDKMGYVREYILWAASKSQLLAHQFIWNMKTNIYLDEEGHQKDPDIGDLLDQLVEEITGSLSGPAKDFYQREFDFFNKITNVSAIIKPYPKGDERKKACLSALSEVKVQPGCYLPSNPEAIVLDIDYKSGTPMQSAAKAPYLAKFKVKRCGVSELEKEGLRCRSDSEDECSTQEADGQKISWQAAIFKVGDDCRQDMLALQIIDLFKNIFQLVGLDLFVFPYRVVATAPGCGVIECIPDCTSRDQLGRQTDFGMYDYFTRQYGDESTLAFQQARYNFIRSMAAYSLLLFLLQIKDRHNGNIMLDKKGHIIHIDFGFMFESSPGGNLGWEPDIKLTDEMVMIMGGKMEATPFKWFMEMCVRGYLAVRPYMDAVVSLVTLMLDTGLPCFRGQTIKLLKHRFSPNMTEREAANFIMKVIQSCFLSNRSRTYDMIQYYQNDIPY
- method-notes: Inhibition of N-terminal FLAG-tagged human full length recombinant PI4K3alpha using D-myo-phosphatidylinositol substrate and ATP incubated for 45 mins by ADP-Glo kinase Assay
pIC50: −log10 of the molar value.
reported-property: pIC50

[1] CC(C)Oc1ccc(-c2ccc3nc(N)sc3c2)cn1
[2] CC(C)Oc1cncc(-c2ccc3nc(N)sc3c2)c1
[3] Cn1cc(-c2ccc3nc(N)sc3c2)cn1
[4] Cc1ccc(-c2ccc3nc(N)sc3c2)cn1
Arrange the 4 compounds by rising pIC50, starting with the smallest. When ranking, write the labels in the order the request describes.
3, 4, 2, 1

* * *

- tgt: Phosphatidylinositol 4,5-bisphosphate 3-kinase catalytic subunit alpha isoform (Homo sapiens, UniProt P42336)
- Sequence (P42336 whole entry, canonical isoform): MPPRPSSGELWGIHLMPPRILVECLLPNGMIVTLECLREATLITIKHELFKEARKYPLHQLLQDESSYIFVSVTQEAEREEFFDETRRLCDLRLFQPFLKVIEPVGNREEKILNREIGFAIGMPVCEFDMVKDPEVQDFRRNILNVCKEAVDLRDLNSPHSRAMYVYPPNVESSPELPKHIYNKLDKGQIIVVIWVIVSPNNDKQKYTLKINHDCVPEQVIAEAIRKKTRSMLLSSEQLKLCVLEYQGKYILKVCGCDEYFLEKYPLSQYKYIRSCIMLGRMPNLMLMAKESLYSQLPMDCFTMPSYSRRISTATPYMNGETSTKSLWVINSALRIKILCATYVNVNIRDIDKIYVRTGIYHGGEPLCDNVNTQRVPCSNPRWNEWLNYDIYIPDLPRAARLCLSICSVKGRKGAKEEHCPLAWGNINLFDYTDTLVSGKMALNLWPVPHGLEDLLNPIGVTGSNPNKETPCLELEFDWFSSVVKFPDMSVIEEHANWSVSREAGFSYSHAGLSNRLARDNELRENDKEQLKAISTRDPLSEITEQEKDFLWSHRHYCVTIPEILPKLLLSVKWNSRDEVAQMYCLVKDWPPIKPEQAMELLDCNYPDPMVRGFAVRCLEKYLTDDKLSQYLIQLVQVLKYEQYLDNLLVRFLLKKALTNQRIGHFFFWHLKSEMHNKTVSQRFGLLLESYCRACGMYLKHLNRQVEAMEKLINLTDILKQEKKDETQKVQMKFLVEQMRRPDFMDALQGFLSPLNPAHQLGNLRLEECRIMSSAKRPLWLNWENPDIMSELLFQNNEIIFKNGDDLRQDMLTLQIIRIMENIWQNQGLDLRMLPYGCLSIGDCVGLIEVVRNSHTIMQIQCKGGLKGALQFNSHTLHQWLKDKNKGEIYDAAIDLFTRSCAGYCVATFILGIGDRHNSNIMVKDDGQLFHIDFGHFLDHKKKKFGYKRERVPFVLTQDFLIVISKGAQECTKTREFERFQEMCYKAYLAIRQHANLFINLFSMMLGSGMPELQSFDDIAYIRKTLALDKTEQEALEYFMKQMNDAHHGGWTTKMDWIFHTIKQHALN
- method-notes: Inhibition of PI3Kalpha (unknown origin) pre-incubated for 20 mins before phosphatidylinositol 4, 5-bisphosphate substrate addition by kinase-glo plus luminescence assay
reported-property: IC50 (µM)

structure-smiles-string: CCn1ccc(-c2ccc3nc(N)sc3c2)cc1=O
reported-property: IC50
measured: 6.31

[P] Nc1nc2ccc(-c3cc[nH]c(=O)c3)cc2s1
[Q] CC(C)Oc1cncc(-c2ccc3nc(N)sc3c2)c1
[R] Cn1nccc1-c1ccc2nc(N)sc2c1
Sort entries by IC50 from minimum to maximum value. When ranking, write the labels in the order the request describes.
Q, P, R
(Q: 0.501 µM, P: 3.98 µM, R: 12.6 µM)
